- Target Or System: recombinant human Axl-msFc (human, UniProt P30530 26-449)
- Sequence (P30530 26-449): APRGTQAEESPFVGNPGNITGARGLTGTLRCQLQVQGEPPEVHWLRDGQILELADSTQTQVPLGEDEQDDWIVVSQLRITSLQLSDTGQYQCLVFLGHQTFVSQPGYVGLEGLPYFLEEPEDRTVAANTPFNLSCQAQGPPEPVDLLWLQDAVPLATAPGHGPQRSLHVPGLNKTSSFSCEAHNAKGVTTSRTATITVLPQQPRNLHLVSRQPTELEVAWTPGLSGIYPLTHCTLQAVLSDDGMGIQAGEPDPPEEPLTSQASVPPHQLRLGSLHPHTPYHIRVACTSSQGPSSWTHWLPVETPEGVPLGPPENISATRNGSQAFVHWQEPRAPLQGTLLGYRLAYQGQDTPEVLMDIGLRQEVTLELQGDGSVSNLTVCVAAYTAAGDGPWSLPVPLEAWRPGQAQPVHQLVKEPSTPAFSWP
- Experimental Protocol: ELISA; 4-P fit parameter C
Listed binders paired with reported EC50
Write the value in µg/mL as a bare number.

Ab301 (antibody, V domains shown) VH: EVKLEASGGGLVQPGMSVKLSCTTSGFTFSDYWMEWVRQAPGKGLEWVAEIRNKVNNYATYYGKSVKGRFTISRDDSKSIVYLQMNSIRSEDTGIYYCNTLRLFAYWGQGTLVTVSA VL: DIVMTQAPLSISVTPGESPSMSCRSSKSLLHRNGITYVYWYLQKPGKSPQLLIYRMSTLASGVPDRFSGSGSETDFTLKINKVEAEDVGIYYCGQLLENPYTFGAGTRLEIK    0.019
Ab302 (antibody, V domains shown) VH: EVQLVESGGGLVKPGGSLKLSCAASGFTFSDYWMEWVRQAPGKGLEWVAEIRNKVNNYATYYGKSVKGRFTISRDDSKNTLYLQMNSLKTEDTAVYYCNTLRLFAYWGQGTLVTVSS VL: DIQMTQSPSSLSASVGDRVTITCRSSKSLLHRQGITYVYWYQQKPGKVPKLLIYRMSTLASGVPSRFSGSGSGTDFTLTISSLQPEDVATYYCGQLLENPYTFGQGTKLEIK    0.02
Ab305 (antibody, V domains shown) VH: EVQLVESGGGLVQPGRSLRLSCTASGFTFSDYWMEWVRQAPGKGLEWVGEIRNKVNNYATYYGKSVKGRFTISRDDSKSIAYLQMNSLKTEDTAVYYCNTLRLFAYWGQGTLVTVSA VL: DIQMTQSPSSLSASVGDRVTITCRSSKSLLHRQGITYVYWYQQKPGKVPKLLIYRMSTLASGVPSRFSGSGSGTDFTLTISSLQPEDVATYYCGQLLENPYTFGQGTKLEIK    0.019

Data request: Please report the recorded EC50 for Ab303 (antibody, V domains shown) VH: EVQLVESGGGVVQPGRSLRLSCAASGFTFSDYWMEWVRQAPGKGLEWVAEIRNKVNNYATYYGKSVKGRFTISRDNSKNTLYLQMNSLRAEDTAVYYCNTLRLFAYWGQGTLVTVSS VL: DIQMTQSPSSLSASVGDRVTITCRSSKSLLHRQGITYVYWYQQKPGKVPKLLIYRMSTLASGVPSRFSGSGSGTDFTLTISSLQPEDVATYYCGQLLENPYTFGQGTKLEIK .
Data returned: 0.019

# credit: patent US20220177593A1
